Molecular target: rat orexin-1 receptor (Rattus norvegicus (Rat))
Sequence (P56718 whole entry): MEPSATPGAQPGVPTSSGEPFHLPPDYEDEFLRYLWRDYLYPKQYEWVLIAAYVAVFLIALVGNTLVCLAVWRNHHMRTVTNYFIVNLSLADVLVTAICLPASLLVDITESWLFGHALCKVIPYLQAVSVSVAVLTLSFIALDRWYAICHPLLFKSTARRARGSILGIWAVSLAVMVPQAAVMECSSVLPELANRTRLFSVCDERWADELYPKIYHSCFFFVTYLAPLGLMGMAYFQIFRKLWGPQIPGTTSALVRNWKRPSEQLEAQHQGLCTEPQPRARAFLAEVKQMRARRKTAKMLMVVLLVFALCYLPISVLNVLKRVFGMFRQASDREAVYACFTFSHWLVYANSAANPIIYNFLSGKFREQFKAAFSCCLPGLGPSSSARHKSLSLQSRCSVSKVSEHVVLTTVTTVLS
Assay: FLIPR Ca2+ Flux Assay, orexin-1 receptor
Type: cell-based
Details: CHO cells expressing the rat orexin-1 receptor; agonist 70 pM Ala-6,12 human orexin-A; read-out: hOX1R FLIPR IC50
Please go through the items and note down their IC50.
One number for each entry, in µM.

Give me IC50 for each of these compounds, listed below.
1. COc1c(C#N)ccnc1O[C@@H]1CC[C@@H](C)N(C(=O)c2cc(F)ccc2-n2nccn2)C1
2. Cc1c(C#N)ccnc1O[C@@H]1CC[C@@H](C)N(C(=O)c2cc(F)ccc2-c2cscn2)C1
3. COc1ccc(C(=O)N2C[C@H](Oc3nccc(C#N)c3C)CC[C@H]2C)c(-c2ccn(C)n2)n1
4. COc1c(C#N)ccnc1O[C@@H]1CC[C@@H](C)N(C(=O)c2ccsc2-n2nccn2)C1
5. Cc1c(C#N)ccnc1O[C@@H]1CC[C@@H](C)N(C(=O)c2ccccc2-n2ncnn2)C1

output:
[2.43, 0.967, 10, 1.96, 4.59]
